- assay-target: UniProtKB P25779
- Sequence (P25779 whole entry): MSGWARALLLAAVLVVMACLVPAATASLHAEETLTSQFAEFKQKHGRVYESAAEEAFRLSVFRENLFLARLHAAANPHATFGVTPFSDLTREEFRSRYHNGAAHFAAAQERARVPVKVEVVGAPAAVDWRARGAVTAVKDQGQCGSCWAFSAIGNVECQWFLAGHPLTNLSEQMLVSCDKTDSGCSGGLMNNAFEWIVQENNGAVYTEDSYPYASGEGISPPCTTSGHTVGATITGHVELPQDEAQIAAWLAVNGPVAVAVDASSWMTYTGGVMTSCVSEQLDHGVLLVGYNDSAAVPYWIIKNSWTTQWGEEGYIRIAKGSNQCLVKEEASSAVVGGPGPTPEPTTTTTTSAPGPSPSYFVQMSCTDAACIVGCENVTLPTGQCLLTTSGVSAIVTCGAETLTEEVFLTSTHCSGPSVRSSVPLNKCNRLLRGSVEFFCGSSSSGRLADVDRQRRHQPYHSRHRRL
- method: Inhibition of recombinant Trypanosoma cruzi cruzain using Z-FR-AMC as substrate preincubated for 10 mins followed by substrate addition and measured at 12 sec interval for 5 mins by fluorimetric analysis
assay-readout: pIC50
Hey, just a heads up that pIC50 is the negative log base 10 of the concentration in molar.

[[record]]
structure_smiles = "Cn1c(=O)n(C)c2cc(CNCCNc3ccnc4cc(Cl)ccc34)ccc21"
assay_readout = "pIC50"
recorded_result = 4.29


Kindly review the next compound as well.
Kindly note the recorded pIC50 for "COCCNC(=O)c1ccc(OC2CCN(Cc3ccc(F)c(F)c3)CC2)c(Cl)c1" , which is 5.30
